Reference for the values: patent EP1068199B1

Each entry below carries its recorded Ki.
- Assayed target: serotonin transporter (Rattus norvegicus, UniProt P31652)
- Construct: frontal cortical membranes prepared from male Sprague-Dawley rats; from tissue; host or cells: rat frontal cortex membranes (male Sprague-Dawley)
- Sequence (P31652 whole entry): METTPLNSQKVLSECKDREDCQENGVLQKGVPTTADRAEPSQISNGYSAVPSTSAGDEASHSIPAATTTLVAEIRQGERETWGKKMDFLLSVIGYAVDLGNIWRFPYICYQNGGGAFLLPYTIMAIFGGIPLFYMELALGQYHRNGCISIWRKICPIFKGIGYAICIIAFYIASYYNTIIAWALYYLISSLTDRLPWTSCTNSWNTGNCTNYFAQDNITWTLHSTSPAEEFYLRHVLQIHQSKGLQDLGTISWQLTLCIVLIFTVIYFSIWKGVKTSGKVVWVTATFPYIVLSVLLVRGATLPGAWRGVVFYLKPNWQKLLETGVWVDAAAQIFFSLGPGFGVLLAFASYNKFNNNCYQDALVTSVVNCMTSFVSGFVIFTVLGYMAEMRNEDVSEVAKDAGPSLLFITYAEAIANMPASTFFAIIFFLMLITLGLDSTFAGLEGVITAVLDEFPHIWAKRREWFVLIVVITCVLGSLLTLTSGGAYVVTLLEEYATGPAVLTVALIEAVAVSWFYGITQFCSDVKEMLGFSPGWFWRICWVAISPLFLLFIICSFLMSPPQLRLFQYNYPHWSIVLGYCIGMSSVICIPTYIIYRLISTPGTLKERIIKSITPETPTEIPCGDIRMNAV
- Protocol summary: Serotonin transporter affinity, 3H-paroxetine binding to frontal cortical membranes
- Design: species or system male Sprague-Dawley rats
- Experimental setup: read-out: ST (Ki, nM,)
Give the value in nM but do not write nM after it.

Here is how some compounds turned out for Ki.
>  <Compound structure>
O=C1Cc2c(OCCNCCCc3c[nH]c4ccccc34)ccc(F)c2N1

>  <Assayed target>
serotonin transporter (Rattus norvegicus, UniProt P31652)

>  <Unit abbrev>
nM

>  <Measured value>
12

$$$$
>  <Compound structure>
S=c1[nH]c2cccc(OCCNCCCc3c[nH]c4ccccc34)c2[nH]1

>  <Assayed target>
serotonin transporter (Rattus norvegicus, UniProt P31652)

>  <Unit abbrev>
nM

>  <Measured value>
21

$$$$

The record that follows has no Ki shown yet.
Recorded Ki for O=c1[nH]c2cccc(OCCNCCCc3c[nH]c4ccccc34)c2[nH]1 , please?
2.09
